Values from paper PMC6905387

Biological target: SmTGR (Schistosoma mansoni)
Sequence (Q962Y6 1-598): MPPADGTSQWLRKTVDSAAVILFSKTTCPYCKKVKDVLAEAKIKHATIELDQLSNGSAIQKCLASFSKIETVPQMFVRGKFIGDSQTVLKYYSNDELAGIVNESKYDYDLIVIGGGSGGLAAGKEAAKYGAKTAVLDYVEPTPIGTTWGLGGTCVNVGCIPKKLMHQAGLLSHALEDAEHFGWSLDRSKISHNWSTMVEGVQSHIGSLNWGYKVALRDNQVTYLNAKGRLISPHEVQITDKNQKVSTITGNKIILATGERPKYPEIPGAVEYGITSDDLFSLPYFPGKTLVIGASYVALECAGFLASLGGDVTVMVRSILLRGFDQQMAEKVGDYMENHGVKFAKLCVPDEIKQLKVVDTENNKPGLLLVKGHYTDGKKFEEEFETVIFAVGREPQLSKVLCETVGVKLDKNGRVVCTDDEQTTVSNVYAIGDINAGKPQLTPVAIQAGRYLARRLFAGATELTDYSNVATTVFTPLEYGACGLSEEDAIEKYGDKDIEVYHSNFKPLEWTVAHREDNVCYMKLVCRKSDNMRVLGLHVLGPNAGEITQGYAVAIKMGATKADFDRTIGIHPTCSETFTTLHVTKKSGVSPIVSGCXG
Sorting guide: entries reporting IC50 beneath 3000 µM go in the condition met pile, the rest go in the condition not met pile.

Hello, I'm reviewing records and need to know if IC50 of NCCCCN1CCN(CCO)CC1 is below 3000 µM. Could you check?
condition not met

Lab note: confirm whether the reported IC50 for this compound is below 3000 µM, equality not counting. compound: O=C(O)c1ccc2ncccc2n1
condition met

Is IC50 of CCOC(=O)c1c(C)oc2c1c(CN1CCN(CCO)CC1)c(O)c1ccccc12 strictly below 3000 µM?
condition met

Input O=S(=O)(O)CCN1CCN(CCO)CC1 ; condition: IC50 strictly below 3000 µM. Does it hold?
condition not met

Is it true that IC50 reported for O=C(O)c1ccc2ccccc2c1 is less than 3000 µM?
condition met

Item O=C(O)c1ccc(CN2CCN(CCO)CC2)nc1 : IC50 beneath 3000 µM, strictly?
condition not met

Criterion: IC50 strictly below 3000 µM. Is it met by OCCN1CCN(Cc2cc(Cl)c3cccnc3c2O)CC1 ?
condition met
